biological target: GST-Bcl-2 (Homo sapiens (Human), UniProt P10415); assay: Time Resolved-Fluorescence Resonance Energy Transfer (TR-FRET) Bcl-2 binding assay; details: GST-Bcl-2 1 nM, F-Bak peptide probe 100 nM, Tb-anti-GST antibody 1 nM; Ki by Wang's equation
Sequence (P10415 whole entry): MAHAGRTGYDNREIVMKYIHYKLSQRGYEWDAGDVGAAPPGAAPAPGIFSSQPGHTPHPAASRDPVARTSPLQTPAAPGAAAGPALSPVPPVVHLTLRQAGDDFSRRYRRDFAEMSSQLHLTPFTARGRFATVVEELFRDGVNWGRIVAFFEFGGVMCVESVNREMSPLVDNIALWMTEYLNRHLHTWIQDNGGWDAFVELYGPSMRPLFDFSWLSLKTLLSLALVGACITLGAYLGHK
Consider the following compounds and their measured Ki readings.
experimental-endpoint: Ki (nM)

>>> measured_number("CC1(C)CCC(CN2CCN(c3ccc(C(=O)NS(=O)(=O)c4cnc(OCC5(F)CCOCC5)c(Cl)c4)c(Oc4cc5cc[nH]c5cc4F)c3)CC2)=C(c2ccc(Cl)cc2)C1")
0.037
>>> measured_number("CC1(C)CCC(CN2CCN(c3ccc(C(=O)NS(=O)(=O)c4ccc(NC5CCN(C6CCOCC6)CC5)c([N+](=O)[O-])c4)c(Oc4cccc5[nH]c(C(F)(F)F)cc45)c3)CC2)=C(c2ccc(Cl)cc2)C1")
2.95
>>> measured_number("CC1(C)CCC(CN2CCN(c3ccc(C(=O)NS(=O)(=O)c4ccc(NCC5CCOCC5)c([N+](=O)[O-])c4)c(Oc4cc(N)nc(Br)c4)c3)CC2)=C(c2ccc(Cl)cc2)C1")
17.9
>>> measured_number("CC1(C)CCC(CN2CCN(c3ccc(C(=O)NS(=O)(=O)c4ccc(NCC5CCOCC5)c([N+](=O)[O-])c4)c(Oc4ccc5[nH]cc(CCN)c5c4)c3)CC2)=C(c2ccc(Cl)cc2)C1")
51.7

====

Consider the following compounds and their measured pKi readings.
molecular target: GST-Bcl-2 (Homo sapiens (Human), UniProt P10415); experiment: Time Resolved-Fluorescence Resonance Energy Transfer (TR-FRET) Bcl-2 binding assay; settings: GST-Bcl-2 1 nM, F-Bak peptide probe 100 nM, Tb-anti-GST antibody 1 nM; Ki by Wang's equation
pKi: −log10 of the molar value.
experimental-endpoint: pKi

>>> measured_number("Cc1n[nH]c2cccc(Oc3cc(N4CCN(CC5=C(c6ccc(Cl)cc6)CC(C)(C)CC5)CC4)ccc3C(=O)NS(=O)(=O)c3ccc(NC4CCN(C)CC4)c([N+](=O)[O-])c3)c12")
10.05
>>> measured_number("CN1CCN(Nc2ccc(S(=O)(=O)NC(=O)c3ccc(N4CCN(CC5=C(c6ccc(Cl)cc6)CC(C)(C)CC5)CC4)cc3Oc3cnc(N)c(Cl)c3)cc2[N+](=O)[O-])CC1")
11.05
>>> measured_number("CC1(C)CCC(CN2CCN(c3ccc(C(=O)NS(=O)(=O)c4cnc(OCC5COCCO5)c(Br)c4)c(Oc4cc5cc[nH]c5cc4F)c3)CC2)=C(c2ccc(Cl)cc2)C1 (stereo not shown)")
9.17
>>> measured_number("CN1CCC(Nc2ccc(S(=O)(=O)NC(=O)c3ccc(N4CCN(CC5=C(c6ccc(Cl)cc6)CC(C)(C)CC5)CC4)cc3Oc3ccc(N)c(Cl)c3)cc2[N+](=O)[O-])CC1")
10.72
>>> measured_number("CC1(C)CCC(CN2CCN(c3ccc(C(=O)NS(=O)(=O)c4cnc(OCC5(F)CCOCC5)c(Cl)c4)c(Oc4cnc(N)c(Cl)c4)c3)CC2)=C(c2ccc(Cl)cc2)C1")
10.72
>>> measured_number("CN(C)C(=O)Cc1ccccc1Oc1cc(N2CCN(Cc3ccccc3-c3ccc(Cl)cc3)CC2)ccc1C(=O)NS(=O)(=O)c1ccc(NCC2CCOCC2)c([N+](=O)[O-])c1")
8.66
>>> measured_number("CN1CCC(Nc2ccc(S(=O)(=O)NC(=O)c3ccc(N4CCN(CC5=C(c6ccc(Cl)cc6)CC(C)(C)CC5)CC4)cc3Oc3cc(F)cc(F)c3Cl)cc2[N+](=O)[O-])CC1")
9.92
>>> measured_number("CN1CCC(Nc2ccc(S(=O)(=O)NC(=O)c3ccc(N4CCN(CC5=C(c6ccc(Cl)cc6)CC(C)(C)CC5)CC4)cc3Oc3ccc(Cl)c(Cl)c3)cc2[N+](=O)[O-])CC1")
10.25
>>> measured_number("O=C(NS(=O)(=O)c1ccc(NCCCN2CCOCC2)c([N+](=O)[O-])c1)c1ccc(N2CCN(Cc3ccccc3-c3ccc(Cl)cc3)CC2)cc1Oc1cccc(Cl)c1")
9.48
